ASSAY_SYSTEM: GPR103 E297^6.59A (Homo sapiens, UniProt Q96P65, E297A)
Construct: we used human full-length QRFPR-encoding plasmids; expressed in transfected cells; host or cells: HEK293 cells (HEK293A in the flow cytometry section), pCAGGS vector
TEST_PROTOCOL: TGFα shedding assay; Exp. level >WT (1:1)
Type: cell-based
CONDITION_CONTEXT: n = 3
No end group written: not given here.
PARAMETER_MEASURED: pEC50
# pEC50 is unitless: minus log10 of the molar concentration; print number only

Give measured pEC50 for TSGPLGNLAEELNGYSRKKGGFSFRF-NH2 [QRFP26] (GPR103 E297^6.59A (Homo sapiens, UniProt Q96P65, E297A)).
7.55

* * *

ASSAY_SYSTEM: GPR103 Q184^4.64A (Homo sapiens, UniProt Q96P65, Q184A)
Construct: we used human full-length QRFPR-encoding plasmids; expressed in transfected cells; host or cells: HEK293 cells, pCAGGS vector
Sequence (Q96P65 1-431 Q184A): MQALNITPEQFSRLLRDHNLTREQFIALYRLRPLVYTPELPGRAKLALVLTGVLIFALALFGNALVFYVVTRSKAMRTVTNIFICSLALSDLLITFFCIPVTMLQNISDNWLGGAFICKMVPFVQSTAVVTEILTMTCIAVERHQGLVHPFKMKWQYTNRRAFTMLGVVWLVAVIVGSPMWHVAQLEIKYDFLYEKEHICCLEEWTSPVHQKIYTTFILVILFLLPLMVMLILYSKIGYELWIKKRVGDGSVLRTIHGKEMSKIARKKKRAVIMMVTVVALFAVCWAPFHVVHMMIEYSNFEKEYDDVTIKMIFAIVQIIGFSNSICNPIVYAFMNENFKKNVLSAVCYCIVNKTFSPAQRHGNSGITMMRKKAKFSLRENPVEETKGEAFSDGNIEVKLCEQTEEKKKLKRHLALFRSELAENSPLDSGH
TEST_PROTOCOL: TGFα shedding assay; Exp. level WT (1:5)
Type: cell-based
CONDITION_CONTEXT: n = 3
No end group written: not given here.
PARAMETER_MEASURED: pEC50
In simple prose, pEC50 is minus the logarithm base ten of a concentration in moles per litre.

State, for GPR103 Q184^4.64A (Homo sapiens, UniProt Q96P65, Q184A), measured pEC50 of the substance listed here: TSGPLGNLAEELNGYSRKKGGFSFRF-NH2 [QRFP26]
6.63

* * *

ASSAY_SYSTEM: wild-type GPR103 (Homo sapiens, UniProt Q96P65)
Construct: we used human full-length QRFPR-encoding plasmids; expressed in transfected cells; host or cells: HEK293 cells, pCAGGS vector
Sequence (Q96P65 1-431): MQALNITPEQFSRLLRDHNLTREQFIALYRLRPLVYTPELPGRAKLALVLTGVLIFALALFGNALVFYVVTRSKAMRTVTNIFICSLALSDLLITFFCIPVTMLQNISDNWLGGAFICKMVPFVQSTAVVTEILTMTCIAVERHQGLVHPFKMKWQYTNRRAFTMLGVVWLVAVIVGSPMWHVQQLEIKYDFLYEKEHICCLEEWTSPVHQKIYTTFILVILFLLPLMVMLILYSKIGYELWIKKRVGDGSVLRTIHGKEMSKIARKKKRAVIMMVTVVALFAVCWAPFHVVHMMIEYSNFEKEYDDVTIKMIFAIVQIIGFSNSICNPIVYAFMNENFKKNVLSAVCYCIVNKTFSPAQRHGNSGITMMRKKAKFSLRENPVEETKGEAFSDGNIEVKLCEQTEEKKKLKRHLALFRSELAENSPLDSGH
TEST_PROTOCOL: TGFα shedding assay, HEK293 cells; WT titrated to lower expression (1:1 to 1:50)
Assay type: cell-based
CONDITION_CONTEXT: WT (1:20); n = 5
No end group written: not given here.
PARAMETER_MEASURED: EC50 (nM)
Give the value, in units of nM, as a plain number.

Respond only with EC50 recorded for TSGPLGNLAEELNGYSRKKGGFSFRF-NH2 [QRFP26]
21.4

* * *

ASSAY_SYSTEM: GPR103 E203^ECL2A (Homo sapiens, UniProt Q96P65, E203A)
Construct: we used human full-length QRFPR-encoding plasmids; expressed in transfected cells; host or cells: HEK293 cells, pCAGGS vector
TEST_PROTOCOL: TGFα shedding assay; Exp. level >WT (1:1)
Assay type: cell-based
CONDITION_CONTEXT: n = 3
No end group written: not given here.
PARAMETER_MEASURED: EC50 (nM)
Give just the numeric value; nM need not be written.

Give EC50 for the following substance: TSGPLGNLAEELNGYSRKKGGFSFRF-NH2 [QRFP26]
288

* * *

ASSAY_SYSTEM: GPR103 E203^ECL2A/Q211^5.35E/E297^6.59A (Homo sapiens, UniProt Q96P65, E203A/E297A/Q211E)
Construct: we used human full-length QRFPR-encoding plasmids; expressed in transfected cells; host or cells: HEK293 cells (HEK293A in the flow cytometry section), pCAGGS vector
TEST_PROTOCOL: TGFα shedding assay; Exp. level >WT (1:1)
Type: cell-based
CONDITION_CONTEXT: n = 3
No end group written: not given here.
PARAMETER_MEASURED: pEC50
Please treat pEC50 as minus the base-10 logarithm of the molar concentration.

Return reported pEC50. Input substance: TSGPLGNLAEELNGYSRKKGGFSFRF-NH2 [QRFP26]
6.37

* * *

ASSAY_SYSTEM: GPR103 F11N-termA (Homo sapiens, UniProt Q96P65, F11A)
Construct: we used human full-length QRFPR-encoding plasmids; expressed in transfected cells; host or cells: HEK293 cells, pCAGGS vector
TEST_PROTOCOL: TGFα shedding assay; Exp. level WT (1:10)
Format: cell-based
CONDITION_CONTEXT: n = 3
No end group written: not given here.
PARAMETER_MEASURED: EC50 (nM)
Give just the numeric value; nM need not be written.

Read the entry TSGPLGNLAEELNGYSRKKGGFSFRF-NH2 [QRFP26] and write its reported EC50.
178

* * *

ASSAY_SYSTEM: GPR103 F25N-termA (Homo sapiens, UniProt Q96P65, F25A)
Construct: we used human full-length QRFPR-encoding plasmids; expressed in transfected cells; host or cells: HEK293 cells, pCAGGS vector
TEST_PROTOCOL: TGFα shedding assay; Exp. level >WT (1:1)
Type: cell-based
CONDITION_CONTEXT: n = 3
No end group written: not given here.
PARAMETER_MEASURED: pEC50
Remember, pEC50 is on a log scale: it is -log10 of the molar concentration.

Provide pEC50 value for the following substance: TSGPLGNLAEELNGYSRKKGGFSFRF-NH2 [QRFP26]
7.10

* * *

ASSAY_SYSTEM: GPR103 Y29N-termA (Homo sapiens, UniProt Q96P65, Y29A)
Construct: we used human full-length QRFPR-encoding plasmids; expressed in transfected cells; host or cells: HEK293 cells, pCAGGS vector
Sequence (Q96P65 1-431 Y29A): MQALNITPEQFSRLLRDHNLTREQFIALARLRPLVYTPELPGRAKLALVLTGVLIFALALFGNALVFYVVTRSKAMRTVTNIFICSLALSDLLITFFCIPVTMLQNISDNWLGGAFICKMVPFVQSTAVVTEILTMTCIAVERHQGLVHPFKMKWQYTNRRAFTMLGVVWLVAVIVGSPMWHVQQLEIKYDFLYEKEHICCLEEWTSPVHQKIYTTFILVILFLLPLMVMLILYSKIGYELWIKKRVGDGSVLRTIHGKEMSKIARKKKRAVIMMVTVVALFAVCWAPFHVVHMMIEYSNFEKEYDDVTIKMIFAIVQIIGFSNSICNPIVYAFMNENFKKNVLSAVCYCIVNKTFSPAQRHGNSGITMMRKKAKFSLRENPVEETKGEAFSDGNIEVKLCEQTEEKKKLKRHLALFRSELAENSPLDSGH
TEST_PROTOCOL: TGFα shedding assay; Exp. level WT (1:20)
Type: cell-based
CONDITION_CONTEXT: n = 3
Description: For the TGFα shedding assay and the flow cytometry analysis, we used human full-length QRFPR-encoding plasmids. […] The TGFα shedding assay was performed as described previously with minor modifications. […] Absorbance at 405 nm of the plates was measured using a microplate reader (SpectraMax 340 PC384, Molecular Devices) before and after 1-h incubation at room temperature. […] mutants. […] From the concentration–response curves (a), Emax (c) and ΔpEC50 (d) values relative to the wild type were calculated. […]
No end group written: not given here.
PARAMETER_MEASURED: pEC50
Remember the convention: pEC50 equals -log10 of concentration in molar.

Find pEC50 for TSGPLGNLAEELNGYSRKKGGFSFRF-NH2 [QRFP26] on GPR103 Y29N-termA (Homo sapiens, UniProt Q96P65, Y29A) and write it down.
6.57
